B1: GFP aptamer (parent)
chain: GCUUCUGGACUGCGAUGGGAGCACGAAACGUCGUGGCGCAAUUGGGUGGGGAAAGUCCUUAAAAGAGGGCCACCACAGAAGC

Variants of: B1
experiment: HiTS-RAP
measurement_parameters: with EGFP
experimental_readout: Kd (nM)
Give the value, in units of nM, as a plain number.

// solved cases for Kd follow
{"columns": ["variant_code", "units_of_measure", "numeric_result"],
 "data": [
  ["C13U U43C", "nM", 8.72],
  ["C22G", "nM", 29.1]
]}

Summary for this variant, A27G C32U : Kd is 3.03

Summary for this variant, A26G C32U : Kd is 5.01

Summary for this variant, U11C U31C : Kd is 14.2

Summary for this variant, C76U : Kd is 37.1

Summary for this variant, G33A C73U : Kd is 8.48

Summary for this variant, G38U : Kd is 14.5

Summary for this variant, G65C : Kd is 35.3

Summary for this variant, G8A G14A : Kd is 20.2

Summary for this variant, U3G : Kd is 5.4

Summary for this variant, C22U G68A : Kd is 18

Summary for this variant, G68A : Kd is 27.5

Summary for this variant, U34C A77G : Kd is 18

Summary for this variant, C10G A20G : Kd is 4.36

Summary for this variant, G81A : Kd is 5.44

Summary for this variant, U31C G68A : Kd is 28.1

Summary for this variant, C73U : Kd is 6.59

Summary for this variant, G14A A28G : Kd is 4.8
